# protocol-details: Pharmacokinetic (bioavailability) study of ibuprofen + ketoprofen nasal spray in healthy adult human subjects, plasma by LC-MS/MS
# condition-info: human, in vivo, inhaled or intranasal, AUC0-∞ range over the dose range of the composition, intranasal, dosage unit 0.4-8 mg ibuprofen and 0.025-0.48 mg ketoprofen
outcome-measure: AUC(0-inf)

Notebook: CC(C)Cc1ccc(C(C)C(=O)O)cc1 (stereo not shown) , AUC(0-inf) read as 133 to 1920 ng·h/mL

---

# protocol-details: Pharmacokinetic (bioavailability) study of ibuprofen + ketoprofen nasal spray in healthy adult human subjects, plasma by LC-MS/MS
# condition-info: human, in vivo, inhaled or intranasal, plasma Cmax, intranasal, 8 sprays (100 μL each); printed as equivalent to 1.816 mg ibuprofen and 0.24 mg ketoprofen
outcome-measure: Cmax
Give your result as the value with the unit written after it.

Notebook: CC(C)Cc1ccc(C(C)C(=O)O)cc1 (stereo not shown) , Cmax read as 165 ng/mL
